# Test system: SF-539 CNS
# ASSAY_METHOD_TEXT: NCI-60 one-dose screen, 48 h (100 = growth as untreated, 0 = no growth, -100 = all killed)
# CONDITION_CONTEXT: 10 µM unless noted
About 83,000 compounds went through this panel and 20% of them were active in at least one assay; those are over-represented in the sample as a whole.
# growth values compiled below
All answers are understood in %, so give the number only.

Look over these answered cases.
COc1ccc(-c2cc(-c3cc(OC)c(OC)c(OC)c3)nc(N3CCOCC3)c2C#N)cc1 | 76.6
O=c1c2cc(F)cc(Cl)c2sc2c(NCCCNCCO)nc3ccccc3c12 | 88.5
CN1CCN(c2ccc(-c3ccc4ncc(C#N)c(Nc5ccc(F)c(Cl)c5)c4c3)cc2)CC1 | 54.3
Cc1ccc(/C=N\NC(=O)c2[nH]c3ccc(F)cc3c2-c2ccccc2)cc1 | 21.4
COc1ccc(/C=C2\Oc3cc(OCCN4CCC(Cc5ccccc5)CC4)ccc3C2=O)cc1OC | 83

Let's switch to this compound now.
Recall the recorded growth for `c1cc(-c2nnc(SSc3ncnc4nc[nH]c34)o2)ccn1` with SF-539 CNS and state it.
15.4

---

# Tested on: M14 melanoma
# ASSAY_METHOD_TEXT: NCI-60 one-dose screen, 48 h (100 = growth as untreated, 0 = no growth, -100 = all killed)
# CONDITION_CONTEXT: 10 µM unless noted
The panel holds about 83,000 compounds, 20% with a hit somewhere; the sample as a whole holds those more often.
VALUE_TYPE: growth (%)
Numbers only; they are read as %.

COC1=C(C)C(=O)c2c(c(CCCl)c3n2CCC3OC(C)=O)C1=O (stereo unspecified) | -46.3
Cc1cc2[nH]c(=O)c3c4ncccc4cn3c2cc1C | 67.3
NCCCNc1nc2ccccc2c2c(=O)c3cc(F)cc(F)c3sc12 | -85.2
CCOC(=O)/C(C#N)=C\Nc1ccc2ncnc(Nc3ccc(Cl)cc3Cl)c2c1 | 106

May I ask what growth has been recorded for `COc1cccc(/C=C2\C=C(c3ccccc3)N(Cc3ccccc3)C2=O)c1` ?
5.88

Then what about the compound `O=C(CCc1nnc(-c2c(Cl)cccc2Cl)o1)c1nc2ccccc2[nH]1` ?
55.8

Now consider Cc1ccc(C(=O)NN2C(=O)CSC2c2ccc(Cl)cc2)cn1 (stereo unspecified) and answer again.
97.8

Same question for `O=C(/C=C/c1cccc2ccccc12)c1ccc(NC(=O)c2ccccc2CN2C(=O)c3ccccc3C2=O)cc1` please.
72.8

Also need `COc1ccc(-c2nn(C(=O)c3cc(OC)c(OC)c(OC)c3)c3cc(N)ccc23)cc1` , thanks.
24.4

Same again, this time with `CCCCOc1nc2c(C)cccc2cc1-c1cc(-c2ccc(Cl)cc2)nc(-c2ccc(Cl)cc2)c1`
101

And then N#CC1=C(N)Oc2c(sc3c(Br)cccc23)C1c1ccc(Br)cc1 (stereo unspecified) , what is it?
-0.594

How about `NCCCNc1nc2ccccc2c2c(=O)c3cc(F)cc(Cl)c3sc12` ?
90.4

Please give the result for CCN(CC)c1ccc(C2=NN(C(C)=O)C(c3cc(OC)c(OC)c(OC)c3)C2)cc1 (stereo unspecified) too.
-28.8

---

# System: HOP-62 NSCLC
# ASSAY_METHOD_TEXT: NCI-60 one-dose screen, 48 h (100 = growth as untreated, 0 = no growth, -100 = all killed)
# CONDITION_CONTEXT: 10 µM unless noted
Compounds without any hit were thinned out: in the full panel of roughly 83,000, 20% have a hit.
Output schema: class label derived from growth. Mapping: low = under 70%, middle = from 70% up to 90%, high = 90% and over

C=C1CC[C@H](C(C)C)[C@@H]2[C@H]1[C@H]1CC(=C)[C@@H](O)CC[C@@](C)(O)[C@@H]2O1 | middle
CN1C(=O)CNC(=O)[C@H](NC(=O)c2nc3ccccc3cc2O)CSSC[C@H]1C(=O)NCCc1nc2ccccc2cc1O | middle

Band for the recorded growth of `NCCOc1ncccc1/C=C1\c2ccccc2-c2ccc(C(F)F)cc21` ?
low

Can you check `S=C(c1cccs1)N1CCN(c2cccc(Cl)c2)CC1` next?
high

Same read-out for `COc1nc2ccccc2cc1-c1nc2c(cnn2-c2ccc(Br)cc2)c(=O)[nH]1` ?
low

---

# System: HCC-2998 colon
# ASSAY_METHOD_TEXT: NCI-60 one-dose screen, 48 h
# CONDITION_CONTEXT: 10 µM unless noted
About 83,000 compounds went through this panel and 20% of them were active in at least one assay; those are over-represented in the sample as a whole. Calls of active or inactive are those of the source. How the source made its calls: active means growth percent below 10; inactive means the rest.
Your response should consist of one outcome taken from 1.0 = active, 0.0 = inactive

Study these solved cases before continuing.
Cc1ccc(C(=O)NN2C(=O)CSC2c2cccc([N+](=O)[O-])c2)cn1 (stereo unspecified) | 0.0
O=C(CCN1C(=O)/C(=C/c2ccc(O)cc2)SC1=S)Nc1ccc(Cl)cc1 | 0.0
Oc1ccc(CCl)c2cccnc12 | 0.0
O=[N+]([O-])c1ccc(Cl)c(-c2cc(CCCCO)on2)c1 | 0.0
COc1ccc(OC)c(/C=C/C(=O)N/N=C/c2ccc(Cl)cc2)c1 | 1.0

From here, focus on the item given below.
Give the logged outcome of this assay for the following molecule: `[O-][n+]1c2ccccc2[n+]([O-])c2c3ccccc3[nH]c21`
0.0

---

# Tested on: OVCAR-5 ovarian
# ASSAY_METHOD_TEXT: NCI-60 one-dose screen, 48 h (100 = growth as untreated, 0 = no growth, -100 = all killed)
# CONDITION_CONTEXT: 10 µM unless noted
Compounds without any hit were thinned out: in the full panel of roughly 83,000, 20% have a hit. The source made the active and inactive calls. How the source made its calls: active means growth percent below 10; inactive means the rest.
Collected growth values appear next to each entry.

Cc1nc(/N=C(\N)NC(=O)Nc2cccc(Cl)c2)sc1C | 96.3% (inactive)
CCc1ccc(Oc2c(-c3ccc(OCc4ccc(Cl)cc4)cc3O)nn(C)c2C(F)(F)F)cc1 | 13.2% (inactive)
CNc1nc2c(s1)C(c1cccc(F)c1)CC(=O)N2 (stereo unspecified) | 97.1% (inactive)
c1cc(-c2nnc(SSc3ncnc4nc[nH]c34)o2)ccn1 | 39.7% (inactive)
NCCNc1nc2ccccc2c2c(=O)c3cc(F)ccc3sc12 | 91.4% (inactive)
C=C(C)C1CCC2(C)OC2C1 (stereo unspecified) | 102% (inactive)
O=CN(SSN(C=O)C1CCCCC1)C1CCCCC1 | 113% (inactive)
CCOC(=O)c1cn2ncnc(Oc3ccc(NC(=O)NCCN(CC)CC)c(Cl)c3)c2c1C | 80.8% (inactive)

Bench note: what growth did N#CC1=C(N)Oc2c(sc3c(Br)cccc23)C1c1ccc([N+](=O)[O-])cc1 (stereo unspecified) show?
31.1% (inactive)

Same lookup for `COc1ccc(/C=N/Nc2cc(=O)[nH]c3ccc(Cl)cc23)cc1` , please.
95.1% (inactive)

And `CCOC(=O)c1sc2ncc(-c3ccc(C)cc3)n2c1C` ?
95.9% (inactive)

---

# Test system: HOP-92 NSCLC
# ASSAY_METHOD_TEXT: NCI-60 one-dose screen, 48 h
# CONDITION_CONTEXT: 10 µM unless noted
Compounds without any hit were thinned out: in the full panel of roughly 83,000, 20% have a hit. Active and inactive are the calls of the source. Rule for the calls: active = growth percent below 10; inactive = the rest.
Give one outcome, nothing more. List: t (active), f (inactive)

Test call for this compound, please: `NC(=O)Nc1ccc2ncnc(Nc3ccc(Cl)cc3)c2c1`
f

Also need `CCCCCCN(CCCCCC)c1ccc(/C=C2/SC(=O)NC2=O)c(C)c1` , thanks.
f

Check `CC(=O)O.CN1[CH-]N(Cc2ccc(C#N)cc2)c2ccccc21.[Ag+]` too.
f

Next: `COc1cc2oc(-c3ccc(O)cc3)cc(=O)c2c(O)c1-c1c(OC)cc(O)c2c(=O)cc(-c3ccc(O)cc3)oc12`
f

Same question, `O=C(N/N=C/[C@H](O)[C@H](O)[C@H](O)CO)c1ccc(NC(=O)c2cccnc2)cc1` this time
f

Try `COc1cccc(-c2nc(-c3ccc(NS(=O)(=O)c4ccccc4)cc3)[nH]c2-c2ccnc(Br)c2)c1` next.
f

---

# Tested on: HOP-92 NSCLC
# ASSAY_METHOD_TEXT: NCI-60 one-dose screen, 48 h (100 = growth as untreated, 0 = no growth, -100 = all killed)
# CONDITION_CONTEXT: 10 µM unless noted
Compounds without any hit were thinned out: in the full panel of roughly 83,000, 20% have a hit.
Below, each entry is listed alongside its reported growth.
The answer is to be given in %; state only the numeric part.

Examples from the recorded data:
O=c1c2cc(F)ccc2sc2c(N3CCCCC3)nc3ccccc3c12 | 84.2
Cc1nc(S(=O)(=O)c2ccccc2)c(S(=O)(=O)Cc2ccc([N+](=O)[O-])cc2)o1 | 83.1

Reported growth, compound `COc1ccc2c(c1OC)C(=O)O[C@H]2[C@H]1c2c(cc3c(c2OC)OCO3)CCN1C` : ____
97

Then `COc1ccc(NC2=C(Br)C(=O)C(C)=C(C)C2=O)cc1` ?
-73.6

Now give it for `Brc1c[n+](Cc2ccc3ccccc3c2)cn1Cc1ccc2ccccc2c1` too.
-24

Query `CCCCCCn1c(-c2ccc(C(=O)O/N=C(\N)c3ccc4ccccc4c3)cc2)nc(-c2ccccc2)c1-c1ccccc1` next
16

Queued: CCCCC1CCCC12NC(=O)NC2=O (centres undefined)
93.6
